Data origin: patent US8497278B2

Target: α3 subtype containing GABA-A receptors (Homo sapiens, UniProt P18507+P34903)
Construct: expressed in transfected cells; host or cells: Xenopus laevis oocytes, cRNA injected
Sequence (P34903 29-492): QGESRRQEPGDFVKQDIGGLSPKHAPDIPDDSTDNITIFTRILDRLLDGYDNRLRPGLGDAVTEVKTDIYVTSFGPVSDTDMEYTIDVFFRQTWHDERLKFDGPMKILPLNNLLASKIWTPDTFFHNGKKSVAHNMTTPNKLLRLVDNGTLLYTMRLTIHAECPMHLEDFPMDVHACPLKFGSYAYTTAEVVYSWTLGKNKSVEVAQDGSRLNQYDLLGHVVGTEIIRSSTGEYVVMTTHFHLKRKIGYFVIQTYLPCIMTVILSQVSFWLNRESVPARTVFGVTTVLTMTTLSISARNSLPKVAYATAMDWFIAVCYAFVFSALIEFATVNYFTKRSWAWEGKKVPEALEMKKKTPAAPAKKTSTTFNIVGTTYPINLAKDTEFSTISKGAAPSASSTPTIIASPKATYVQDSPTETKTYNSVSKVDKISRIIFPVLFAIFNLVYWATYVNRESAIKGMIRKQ
Sequence (P28472 26-473 partner): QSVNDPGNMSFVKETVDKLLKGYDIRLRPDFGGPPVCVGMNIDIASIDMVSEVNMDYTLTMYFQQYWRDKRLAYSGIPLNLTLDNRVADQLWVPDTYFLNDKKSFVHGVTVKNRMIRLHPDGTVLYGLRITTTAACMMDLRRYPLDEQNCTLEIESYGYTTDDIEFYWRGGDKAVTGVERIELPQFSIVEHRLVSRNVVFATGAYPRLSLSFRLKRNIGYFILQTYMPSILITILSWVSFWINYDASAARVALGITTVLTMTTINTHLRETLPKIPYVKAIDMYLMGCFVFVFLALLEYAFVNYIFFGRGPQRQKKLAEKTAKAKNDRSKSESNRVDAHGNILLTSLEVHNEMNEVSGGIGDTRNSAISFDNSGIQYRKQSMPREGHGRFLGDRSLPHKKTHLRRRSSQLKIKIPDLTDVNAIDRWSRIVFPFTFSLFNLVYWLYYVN
Sequence (P18507 40-475): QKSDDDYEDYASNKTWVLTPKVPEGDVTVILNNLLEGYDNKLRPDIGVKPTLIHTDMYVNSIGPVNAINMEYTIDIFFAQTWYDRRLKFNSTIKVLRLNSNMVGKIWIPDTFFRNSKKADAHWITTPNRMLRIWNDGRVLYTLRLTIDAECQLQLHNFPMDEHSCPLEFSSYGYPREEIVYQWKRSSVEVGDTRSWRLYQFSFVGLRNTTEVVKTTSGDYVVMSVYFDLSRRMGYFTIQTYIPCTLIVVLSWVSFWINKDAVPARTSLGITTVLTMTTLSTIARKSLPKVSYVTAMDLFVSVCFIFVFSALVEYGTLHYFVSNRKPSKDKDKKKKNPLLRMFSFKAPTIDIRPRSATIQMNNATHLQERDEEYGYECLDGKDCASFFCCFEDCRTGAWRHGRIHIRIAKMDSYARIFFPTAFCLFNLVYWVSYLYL
Assay: Two-electrode voltage clamp electrophysiology in Xenopus oocytes, potentiation of GABA EC20 response, α3
Type: cell-based
Details: 100 nM compound, read-out: Percentage of potentiation alpha3
Description: Electrophysiology protocol: Oocytes were prepared from adult female Xenopus laevis frogs. cRNA encoding human α1, α2, α3, α5, β3 and γ2L GABAA receptor subunits was injected into the cytoplasm of stage 5 or 6 oocytes using the Robocyte Robot (Multi Channel Systems, Reutlingen, Germany). Two-electrode voltage clamp recordings were made in 96-well plates using the Robocyte Robot. […]
measurement kind: activation at 0.1 µM

[[record]]
molecule = "Cc1ccc(-c2nc3ccc(C)cn3c2CNc2ncccn2)cc1"
result = "-10 to 10%"

[[record]]
molecule = "O=c1cc(Cl)n(Cc2c(-c3ccc(Cl)cc3)nc3ccccn23)c(=O)[nH]1"
result = "-10 to 10%"


Alright, here's another molecule for you.
INPUT: Query: activation at 0.1 µM; subject: Clc1ccc(-c2nc3ccccn3c2Cc2nnc(-c3ccccn3)[nH]2)cc1
OUTPUT: 10 to 50%
